Origin of the recorded values: patent US20260042834A1

Listed here: items and their measured hCRHR1 Luciferase Reporter Assay IC50.
- study-target: T1, corticotropin-releasing hormone (CRH) peptide (human and mouse (same sequence), not fully specified)
- T1 peptide: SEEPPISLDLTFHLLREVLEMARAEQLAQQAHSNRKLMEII
- measurement-protocol: cell-based or functional assay
All answers are understood in nM, so give the number only.

Answered examples (5):
PR006149 (antibody, human IgG1, kappa, V domains shown, PTM-removal variant of PR004290) VH: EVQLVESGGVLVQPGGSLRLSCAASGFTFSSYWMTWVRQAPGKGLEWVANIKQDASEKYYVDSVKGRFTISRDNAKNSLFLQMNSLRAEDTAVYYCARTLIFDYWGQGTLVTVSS VL: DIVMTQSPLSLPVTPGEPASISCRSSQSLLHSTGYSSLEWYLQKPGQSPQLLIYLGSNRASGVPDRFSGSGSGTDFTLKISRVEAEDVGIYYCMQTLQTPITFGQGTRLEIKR :: 8.04
PR005658 (antibody, human IgG1, kappa, V domains shown, PTM-removal variant of PR004290) VH: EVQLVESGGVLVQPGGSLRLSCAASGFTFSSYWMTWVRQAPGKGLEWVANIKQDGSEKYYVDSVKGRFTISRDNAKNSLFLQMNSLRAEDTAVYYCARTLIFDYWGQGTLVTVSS VL: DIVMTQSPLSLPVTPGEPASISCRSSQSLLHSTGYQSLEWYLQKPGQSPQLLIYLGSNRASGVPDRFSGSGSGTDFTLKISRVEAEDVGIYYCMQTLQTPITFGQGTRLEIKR :: 16.2
PR005660 (antibody, human IgG1, kappa, V domains shown, PTM-removal variant of PR004290) VH: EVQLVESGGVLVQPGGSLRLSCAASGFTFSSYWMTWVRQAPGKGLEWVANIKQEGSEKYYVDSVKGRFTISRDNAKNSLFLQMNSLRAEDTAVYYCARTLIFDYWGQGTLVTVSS VL: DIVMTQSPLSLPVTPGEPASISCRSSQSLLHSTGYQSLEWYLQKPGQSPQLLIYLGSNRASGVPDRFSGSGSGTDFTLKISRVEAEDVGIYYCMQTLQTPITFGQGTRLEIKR :: 10.3
PR005657 (antibody, human IgG1, kappa, V domains shown, PTM-removal variant of PR004290) VH: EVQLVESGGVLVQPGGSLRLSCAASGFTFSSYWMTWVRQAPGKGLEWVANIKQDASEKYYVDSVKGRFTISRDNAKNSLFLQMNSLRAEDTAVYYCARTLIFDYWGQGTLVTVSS VL: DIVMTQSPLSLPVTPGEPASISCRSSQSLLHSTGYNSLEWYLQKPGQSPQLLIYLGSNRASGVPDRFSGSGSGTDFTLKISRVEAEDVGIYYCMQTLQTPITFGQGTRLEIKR :: 4.6
PR005656 (antibody, human IgG1, kappa, V domains shown, PTM-removal variant of PR004290) VH: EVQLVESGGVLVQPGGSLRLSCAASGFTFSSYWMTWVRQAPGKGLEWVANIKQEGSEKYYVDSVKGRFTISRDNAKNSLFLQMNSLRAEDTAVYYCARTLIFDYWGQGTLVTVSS VL: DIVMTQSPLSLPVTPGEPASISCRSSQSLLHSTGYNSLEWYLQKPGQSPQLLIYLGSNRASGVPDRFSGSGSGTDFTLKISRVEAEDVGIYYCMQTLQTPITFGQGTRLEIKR :: 1.74

## Task # input binder: PR006152 (antibody, human IgG1, kappa, V domains shown, PTM-removal variant of PR004290) VH: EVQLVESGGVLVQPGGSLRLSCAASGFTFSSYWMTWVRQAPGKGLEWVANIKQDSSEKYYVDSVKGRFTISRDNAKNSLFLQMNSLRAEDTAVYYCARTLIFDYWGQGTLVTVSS VL: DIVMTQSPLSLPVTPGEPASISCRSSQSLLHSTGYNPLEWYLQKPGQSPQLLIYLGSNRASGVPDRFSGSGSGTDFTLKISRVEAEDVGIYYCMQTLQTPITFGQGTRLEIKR ; wanted: its hCRHR1 Luciferase Reporter Assay IC50
## Result 2.19

## Task Quick one: hCRHR1 Luciferase Reporter Assay IC50 for PR006147 (antibody, human IgG1, kappa, V domains shown, PTM-removal variant of PR004290) VH: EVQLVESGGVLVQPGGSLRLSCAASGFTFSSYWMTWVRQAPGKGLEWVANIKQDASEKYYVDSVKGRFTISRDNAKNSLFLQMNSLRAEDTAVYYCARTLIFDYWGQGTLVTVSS VL: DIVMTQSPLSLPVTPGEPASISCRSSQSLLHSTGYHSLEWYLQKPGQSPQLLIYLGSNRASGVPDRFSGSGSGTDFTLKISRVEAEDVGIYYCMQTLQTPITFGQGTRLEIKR ?
## Result 12.1
